The origin of these recorded values is patent US12486274B2.

# Tgt: Full length human recombinant PIKFYVE (Homo sapiens (Human), UniProt Q9Y2I7)
# Sequence (Q9Y2I7 whole entry): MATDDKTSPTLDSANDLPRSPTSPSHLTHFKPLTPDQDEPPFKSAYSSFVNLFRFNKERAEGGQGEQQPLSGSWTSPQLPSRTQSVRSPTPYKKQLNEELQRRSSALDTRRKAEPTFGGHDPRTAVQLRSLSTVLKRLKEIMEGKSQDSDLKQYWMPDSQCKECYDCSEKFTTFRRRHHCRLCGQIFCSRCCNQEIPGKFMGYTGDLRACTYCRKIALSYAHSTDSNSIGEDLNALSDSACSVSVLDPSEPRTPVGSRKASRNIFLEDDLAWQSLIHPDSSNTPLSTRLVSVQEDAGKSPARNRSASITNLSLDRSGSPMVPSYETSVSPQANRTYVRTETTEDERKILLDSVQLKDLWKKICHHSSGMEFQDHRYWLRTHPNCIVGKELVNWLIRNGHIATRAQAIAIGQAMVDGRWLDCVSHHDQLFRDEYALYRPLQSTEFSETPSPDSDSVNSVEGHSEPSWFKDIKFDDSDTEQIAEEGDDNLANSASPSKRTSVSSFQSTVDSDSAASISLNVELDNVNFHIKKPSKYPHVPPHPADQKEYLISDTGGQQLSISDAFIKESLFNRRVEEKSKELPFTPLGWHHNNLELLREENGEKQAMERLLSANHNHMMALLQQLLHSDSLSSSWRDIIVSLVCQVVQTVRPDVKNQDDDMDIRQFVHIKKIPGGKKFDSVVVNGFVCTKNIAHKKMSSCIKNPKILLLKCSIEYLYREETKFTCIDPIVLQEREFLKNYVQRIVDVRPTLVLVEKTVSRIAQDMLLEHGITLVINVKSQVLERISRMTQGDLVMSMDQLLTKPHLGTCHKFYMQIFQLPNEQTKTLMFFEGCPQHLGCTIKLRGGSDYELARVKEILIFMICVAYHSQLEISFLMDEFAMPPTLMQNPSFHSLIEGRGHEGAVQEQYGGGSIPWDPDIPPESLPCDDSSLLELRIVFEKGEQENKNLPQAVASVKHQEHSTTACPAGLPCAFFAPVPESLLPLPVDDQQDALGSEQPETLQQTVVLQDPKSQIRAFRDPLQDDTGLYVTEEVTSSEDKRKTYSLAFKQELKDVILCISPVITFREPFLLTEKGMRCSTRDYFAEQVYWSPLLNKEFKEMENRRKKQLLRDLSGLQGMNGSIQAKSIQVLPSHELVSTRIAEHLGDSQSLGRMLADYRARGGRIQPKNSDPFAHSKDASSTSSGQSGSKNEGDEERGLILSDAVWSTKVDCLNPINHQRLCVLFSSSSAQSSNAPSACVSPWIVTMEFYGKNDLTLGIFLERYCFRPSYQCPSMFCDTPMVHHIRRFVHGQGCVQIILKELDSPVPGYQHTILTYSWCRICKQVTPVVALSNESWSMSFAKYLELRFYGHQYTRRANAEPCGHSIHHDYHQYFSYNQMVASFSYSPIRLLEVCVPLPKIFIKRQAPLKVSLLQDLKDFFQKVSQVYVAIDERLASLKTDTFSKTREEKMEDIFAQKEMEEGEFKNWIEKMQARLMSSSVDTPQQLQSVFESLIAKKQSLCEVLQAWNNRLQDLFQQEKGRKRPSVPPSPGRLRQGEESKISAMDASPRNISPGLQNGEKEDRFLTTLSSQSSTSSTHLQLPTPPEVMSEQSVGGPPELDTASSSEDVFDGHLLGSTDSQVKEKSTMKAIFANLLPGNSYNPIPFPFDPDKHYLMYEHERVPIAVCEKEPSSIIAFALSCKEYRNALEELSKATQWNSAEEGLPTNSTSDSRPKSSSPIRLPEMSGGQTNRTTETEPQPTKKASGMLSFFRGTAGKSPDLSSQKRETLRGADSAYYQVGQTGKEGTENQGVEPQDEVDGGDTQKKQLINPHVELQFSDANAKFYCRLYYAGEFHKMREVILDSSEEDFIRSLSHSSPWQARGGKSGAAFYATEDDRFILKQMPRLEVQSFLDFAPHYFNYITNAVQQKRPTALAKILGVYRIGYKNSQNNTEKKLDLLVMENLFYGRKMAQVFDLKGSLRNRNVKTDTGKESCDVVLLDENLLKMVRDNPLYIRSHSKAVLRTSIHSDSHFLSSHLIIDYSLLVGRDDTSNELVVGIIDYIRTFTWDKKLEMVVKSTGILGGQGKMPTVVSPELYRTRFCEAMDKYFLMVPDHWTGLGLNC
# Assay notes: Inhibition of PIKfyve (microfluidic electrophoresis kinase assay)
# Applied conditions: 2 nM enzyme, PI3P/PS substrate, 3 h at room temperature, 12 concentrations
Observation type: IC50 (nM)

(I) Cc1cccc(-c2ccn(-c3cc(N4CCOCC4)n4nc(-c5cc(C)n(C)n5)cc4n3)n2)c1
(II) Cc1cccc(-c2ccn(-c3cc(N4CCOCC4)n4nc(C(=O)N(C)C5CCCC5)cc4n3)n2)c1
(III) COc1cccc(-c2ccn(-c3cc(N4CCOCC4)n4nc(-c5cc(C)n(CCN(C)C)n5)cc4n3)n2)c1
Kindly sort the 3 molecules above from the smallest to the largest IC50. Give the labels in the order specified.
I, III, II
(I: 0.9 nM, III: 8.4 nM, II: 213 nM)
